Attribution: patent US6608082B1

We begin with a simple list: items and their reported IC50.
target or system: MCR-1 (Homo sapiens, UniProt Q01726)
Construct: expressed in transfected cells; host or cells: HEK 293
Sequence (Q01726 whole entry): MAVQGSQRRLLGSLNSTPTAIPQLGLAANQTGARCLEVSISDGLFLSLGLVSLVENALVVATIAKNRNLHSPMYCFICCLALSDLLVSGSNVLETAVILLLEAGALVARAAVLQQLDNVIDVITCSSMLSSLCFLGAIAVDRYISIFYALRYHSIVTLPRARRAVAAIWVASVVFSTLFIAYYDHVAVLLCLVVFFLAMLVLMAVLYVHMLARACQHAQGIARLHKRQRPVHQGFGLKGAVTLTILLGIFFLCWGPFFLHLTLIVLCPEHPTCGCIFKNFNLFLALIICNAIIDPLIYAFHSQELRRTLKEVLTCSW
experiment summary: Melanocortin receptor binding assay, competition with 125I-HP 467, HEK 293 cells expressing hMCR-1
condition details: inhibition of binding of 125I-HP 467, HEK 293 cells expressing MCR-1; read-out: MC-1 IC50
# output: bare number, implied unit nM

- compound: "CCCCOc1ccc(C2C(CNCCc3ccccc3)c3ccccc3CN2CCCCC(CN)NCc2ccccc2)cc1 (stereo not drawn)"
  recorded number: 540
- compound: "CCNc1ccc(C2C(CNCCc3ccccc3)c3ccccc3CN2CCCC[C@@H](CN)NCCCCOc2ccccc2)cc1 (stereo partly drawn)"
  recorded number: 210
- compound: "CCNc1ccc(C2C(CNC3CCCCC3)c3ccccc3CN2CCCC(CN)NCCc2ccc(Br)cc2)cc1 (stereo not drawn)"
  recorded number: 370
- compound: "CCCCNc1ccc(C2C(CNCCc3ccccc3)c3ccccc3CN2CCCC(CN)NCCc2ccccc2)cc1 (stereo not drawn)"
  recorded number: 150
- compound: "CCNc1ccc(C2C(CN)c3ccccc3CN2CCCC(N)CN)cc1 (mixture of isomers)"
  recorded number: 480
- compound: "NCC(CCCN1Cc2ccccc2C(CN)C1c1ccc(O)cc1)NCCC1CCCCC1 (stereo not drawn)"
  recorded number: 3000
- compound: "CCCCNc1ccc(C2C(CN)c3ccccc3CN2CCCC(CN)NCC)cc1 (stereo not drawn)"
  recorded number: 70
- compound: "CCCCNc1ccc(C2C(CNCCc3ccccc3)c3ccccc3CN2CCCC(CN)NCCc2ccc3ccccc3c2)cc1 (stereo not drawn)"
  recorded number: 170
- compound: "CCNc1ccc(C2C(CN)c3ccccc3CN2CCCC(CN)NCC)cc1 (mixture of isomers)"
  recorded number: 220
- compound: "NCC(CCCCN1Cc2ccccc2C(CNCCc2ccc(Oc3ccccc3)cc2)C1c1cc(C(F)(F)F)cc(C(F)(F)F)c1)NCc1ccccc1 (stereo not drawn)"
  recorded number: 11400

Prompt: Check the records and state IC50 for CCNc1ccc(C2C(CNCCc3ccccc3)c3ccccc3CN2CCCC(CN)NCCCCCN(CC)CC)cc1 (stereo not drawn)
Response: 30

Prompt: Check the records and state IC50 for CCOc1ccc(CCNCC2c3ccccc3CN(CCCCC(CN)NCc3ccc(OC)cc3)C2c2cccc(C(F)(F)F)c2)cc1 (stereo not drawn)
Response: 1580

Prompt: Check the records and state IC50 for COc1ccc(CCNCC2c3ccccc3CN(CCCCC(CN)NCc3ccccc3)C2c2cc(C(F)(F)F)cc(C(F)(F)F)c2)cc1OC (stereo not drawn)
Response: 2420

Prompt: Check the records and state IC50 for CCNc1ccc(C2C(CN)c3ccccc3CN2CCCC(CN)NCCCCNC(C)(C)C)cc1 (stereo not drawn)
Response: 93

Prompt: Check the records and state IC50 for CCCCCNc1ccc(C2C(CNCCc3ccccc3)c3ccccc3CN2CCCC(CN)NC)cc1 (stereo not drawn)
Response: 90

Prompt: Check the records and state IC50 for CCOc1ccc(CCNCC2c3ccccc3CN(CCCCC(CN)NCc3ccc(C)cc3)C2c2cc(C(F)(F)F)cc(C(F)(F)F)c2)cc1 (stereo not drawn)
Response: 3020

Prompt: Check the records and state IC50 for CCNc1ccc(C2C(CN)c3ccccc3CN2CCCC(CN)NCCc2ccc3ccccc3c2)cc1 (mixture of isomers)
Response: 100

Prompt: Check the records and state IC50 for CCCCNC(CN)CCCN1Cc2ccccc2C(CNCCc2ccccc2)C1c1ccc(NCC)cc1 (stereo not drawn)
Response: 80

Prompt: Check the records and state IC50 for CCCOc1ccc(C2C(CNCCc3ccccc3)c3ccccc3CN2CCCCC(CN)NC)cc1 (stereo not drawn)
Response: 420

Prompt: Check the records and state IC50 for CCCCNc1ccc(C2C(CNC3CCCCC3)c3ccccc3CN2CCC[C@@H](CN)NC)cc1 (stereo partly drawn)
Response: 170

Prompt: Check the records and state IC50 for CCNc1ccc(C2C(CN)c3ccccc3CN2CCCC(CN)NCC2CC2CNCCc2ccccc2)cc1 (stereo not drawn)
Response: 203

Prompt: Check the records and state IC50 for CCCOc1ccc(C2C(CNCCc3ccccc3)c3ccccc3CN2CCCC(CN)NC)cc1 (stereo not drawn)
Response: 200

Prompt: Check the records and state IC50 for CCCCNc1ccc(C2C(CNC3CCCCC3)c3ccccc3CN2CCCC(CN)NCCC2CCCCC2)cc1 (stereo not drawn)
Response: 80

Prompt: Check the records and state IC50 for CCCCCNc1ccc(C2C(CNCCc3ccccc3)c3ccccc3CN2CCCC(CN)NCCc2ccccc2)cc1 (stereo not drawn)
Response: 270

Prompt: Check the records and state IC50 for CCCCNc1ccc(C2C(CNCCc3ccccc3)c3ccccc3CN2CCCC(N)CN)cc1 (stereo not drawn)
Response: 130

Prompt: Check the records and state IC50 for CCCCCNc1ccc(C2C(CNCCc3ccccc3)c3ccccc3CN2CCCCC(CN)NCc2ccccc2)cc1 (stereo not drawn)
Response: 360

Prompt: Check the records and state IC50 for CCCCOc1ccc(C2C(CNCCc3ccccc3)c3ccccc3CN2CCCC(CN)NCc2ccccc2)cc1 (stereo not drawn)
Response: 250

Prompt: Check the records and state IC50 for COc1ccc(CNC(CN)CCCCN2Cc3ccccc3C(CNCCc3ccc(OC)c(OC)c3)C2c2cc(C(F)(F)F)cc(C(F)(F)F)c2)cc1 (stereo not drawn)
Response: 1630

Prompt: Check the records and state IC50 for CCNc1ccc(C2C(CNCCc3ccccc3)c3ccccc3CN2CCCC(CN)NCCCCCNCCc2ccccc2)cc1 (stereo not drawn)
Response: 68

Prompt: Check the records and state IC50 for CCCCNc1ccc(C2C(CNCCc3ccccc3)c3ccccc3CN2CCCC(CN)NCCc2ccc(OC)cc2)cc1 (stereo not drawn)
Response: 160
